The values you see were collected from PubChem BioAssay AID1851.

Here the recorded AC50 is given for each entry.
biological target: Cytochrome P450 2C9 (Homo sapiens); test: Cytochrome panel assay with activity outcomes; details: recombinant CYP, pro-luciferin dealkylation, luminescence, p450-cyp2c9; series mostly up to 57.1 µM
Out of some 16,000 compounds screened, about 4,000 (25%) were called active. Roughly 26% stayed inconclusive and do not appear here. A selection follows.
metric: AC50

>>> reported_measurement("CN1C(=O)C(C2c3ccccc3C(=O)N2Cc2ccc([N+](=O)[O-])cc2)C(=O)N(C)C1=O (centres undefined)")
"25.1 µM (active)"
>>> reported_measurement("COCCn1c(SCc2nc3sc(C(=O)OC)c(C)c3c(=O)[nH]2)nc2ccccc21")
"0.891 µM (active)"
>>> reported_measurement("O=P(Nc1ccccc1)(Nc1ccccc1)Oc1cccc(Cl)c1")
"12.6 µM (active)"
>>> reported_measurement("c1cc2cc(c1)C[n+]1ccc(c3ccccc31)NCc1ccc(cc1)CNc1cc[n+](c3ccccc13)C2")
"2.51 µM (active)"
>>> reported_measurement("Cc1ccc(NC(=[OH+])c2cc3ccccc3cc2O)c(C)c1.Cc1ccc(NC(=[OH+])c2cc3ccccc3cc2O)c(C)c1.[Ni]")
"3.16 µM (active)"
>>> reported_measurement("Fc1ccc(C(OCCN2CCN(C/C=C\\c3ccccc3)CC2)c2ccc(F)cc2)cc1")
"7.94 µM (active)"
>>> reported_measurement("C[C@@H](O)CN(CCN(C[C@@H](C)O)C[C@@H](C)O)C[C@@H](C)O.O=[N+]([O-])O.[Cu]")
"0.794 µM (active)"
>>> reported_measurement("CCCCN1C(=O)C(C2c3ccccc3C(=O)N2Cc2ccccc2)C(=O)NC1=S (centres undefined)")
"2 µM (active)"
>>> reported_measurement("C(=C/c1ccccc1)/CN1CCN(CCOC(c2ccccc2)c2ccccc2)CC1")
"5.01 µM (active)"
